# Tested on: PDC KRAS tumor spheroids with HUVEC/MSC, viability
# Test Summary: Anticancer human tumor 349418-098-R-PDC patient-derived lung adenocarcinoma cell line growth inhibition [KRAS2]; active means viability on the fitted dose curve at most 10% of control; inactive means the rest
# Conditions: second compound 0.316 µM; first compound 0.001 µM
Please state which outcome applies, choosing from active, inactive

Example cases with answers are listed next.
Cn1ncnc1[C@H]1c2n[nH]c(=O)c3cc(F)cc(c23)N[C@@H]1c1ccc(F)cc1 + C=CC(=O)N1CCN(c2nc(=O)n(-c3c(C)ccnc3C(C)C)c3nc(-c4c(O)cccc4F)c(F)cc23)C(C)C1    inactive
CN(C)C/C=C/C(=O)Nc1cc2c(Nc3ccc(F)c(Cl)c3)ncnc2cc1O[C@H]1CCOC1 + C=CC(=O)N1CCN(c2nc(OCC3CCCN3C)nc3c2CCN(c2cccc4cccc(C)c24)C3)CC1CC#N    inactive
CC(=O)Nc1cccc(-n2c(=O)n(C3CC3)c(=O)c3c(Nc4ccc(I)cc4F)n(C)c(=O)c(C)c32)c1 + CC1OCC2(CCN(c3cnc(Sc4ccnc(N)c4Cl)c(N)n3)CC2)C1N    active
CC(C)n1nc(-c2ccc3oc(N)nc3c2)c2c(N)ncnc21 + CC1OCC2(CCN(c3cnc(Sc4ccnc(N)c4Cl)c(N)n3)CC2)C1N    inactive
CN(C)C/C=C/C(=O)Nc1cc2c(Nc3ccc(F)c(Cl)c3)ncnc2cc1O[C@H]1CCOC1 + COc1cc2nc(C)nc(NC(C)c3cc(N)cc(C(F)(F)F)c3)c2cc1OC1CCOC1    inactive
CC(=O)Nc1cccc(-n2c(=O)n(C3CC3)c(=O)c3c(Nc4ccc(I)cc4F)n(C)c(=O)c(C)c32)c1 + COc1cc2nc(C)nc(NC(C)c3cc(N)cc(C(F)(F)F)c3)c2cc1OC1CCOC1    active

What outcome does the record of this test show for CC(=O)Nc1cccc(-n2c(=O)n(C3CC3)c(=O)c3c(Nc4ccc(I)cc4F)n(C)c(=O)c(C)c32)c1 + C=CC(=O)N1CCN(c2nc(OCC3CCCN3C)nc3c2CCN(c2cccc4cccc(C)c24)C3)CC1CC#N ? inactive

Dear all, I need the recorded test outcome for CC(C)n1nc(-c2ccc3oc(N)nc3c2)c2c(N)ncnc21 + COc1cc2nc(C)nc(NC(C)c3cc(N)cc(C(F)(F)F)c3)c2cc1OC1CCOC1 , thank you. inactive

Can you look up the reported call for CC(C)n1nc(-c2ccc3oc(N)nc3c2)c2c(N)ncnc21 + CNCc1ccccc1-c1csc(C(C)Nc2nc(C)nc3cc(OC)c(OC)cc23)c1 for me? inactive

Per the records of this test, what outcome belongs to CN(C)C/C=C/C(=O)Nc1cc2c(Nc3ccc(F)c(Cl)c3)ncnc2cc1O[C@H]1CCOC1 + C=CC(=O)N1CCN(c2nc(=O)n(-c3c(C)ccnc3C(C)C)c3nc(-c4c(O)cccc4F)c(F)cc23)C(C)C1 ? inactive

What was the test verdict on CC(=O)Nc1cccc(-n2c(=O)n(C3CC3)c(=O)c3c(Nc4ccc(I)cc4F)n(C)c(=O)c(C)c32)c1 + C=CC(=O)N1CCN(c2nc(=O)n(-c3c(C)ccnc3C(C)C)c3nc(-c4c(O)cccc4F)c(F)cc23)C(C)C1 ? inactive

* * *

Recorded viability, T/C values for a group of molecules are listed next.
# Tested on: PDC KRAS tumor spheroids with HUVEC/MSC, viability
# Test Summary: Anticancer human tumor 349418-098-R-PDC cell line growth inhibition [KRAS2];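 further: spheroids exposed to compounds for seven days before readout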
# Conditions: second compound 0.316 µM; first compound 0.0316 µM; stronger effect = lower value
The answer is to be given in %; state only the numeric part.

Below are worked cases with known answers.
CN(C)C/C=C/C(=O)Nc1cc2c(Nc3ccc(F)c(Cl)c3)ncnc2cc1O[C@H]1CCOC1 + CNCc1ccccc1-c1csc(C(C)Nc2nc(C)nc3cc(OC)c(OC)cc23)c1    97.8
CC1COCCN1c1cc(-c2ccnn2C)c2ccnc(-c3ccn[nH]3)c2n1 (stereo not drawn) + C=CC(=O)N1CCN(c2nc(=O)n(-c3c(C)ccnc3C(C)C)c3nc(-c4c(O)cccc4F)c(F)cc23)C(C)C1    37.7

Reported viability, T/C ( CC(C)NCC(C(=O)N1CCN(c2ncnc3c2C(C)CC3O)CC1)c1ccc(Cl)cc1 (stereo not drawn) + C=CC(=O)N1CCN(c2nc(=O)n(-c3c(C)ccnc3C(C)C)c3nc(-c4c(O)cccc4F)c(F)cc23)C(C)C1 ) = 87.2

* * *

# Test system: PDC KRAS tumor spheroids with HUVEC/MSC, viability
# Test Summary: Anticancer human tumor 349418-098-R-PDC cell line growth inhibition [KRAS2];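 further: spheroids exposed to compounds for seven days before readout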
# Conditions: second compound 0.1 µM; first compound 0.0316 µM; stronger effect = lower value
Measured viability, T/C by item
// return numeric value only (unit: %, not printed)

Before answering, review these 2 worked examples.
CC(=O)OC12COC1CC(O)C1(C)C(=O)C(O)C3=C(C)C(OC(=O)C(O)C(NC(=O)OC(C)(C)C)c4ccccc4)CC(O)(C(OC(=O)c4ccccc4)C21)C3(C)C (stereo not given) + CC1OCC2(CCN(c3cnc(Sc4ccnc(N)c4Cl)c(N)n3)CC2)C1N    28.1
CC(=O)OC12COC1CC(O)C1(C)C(=O)C(O)C3=C(C)C(OC(=O)C(O)C(NC(=O)OC(C)(C)C)c4ccccc4)CC(O)(C(OC(=O)c4ccccc4)C21)C3(C)C (stereo not given) + CNCc1ccccc1-c1csc(C(C)Nc2nc(C)nc3cc(OC)c(OC)cc23)c1    14.8

Field viability, T/C (entry Cn1ncnc1[C@H]1c2n[nH]c(=O)c3cc(F)cc(c23)N[C@@H]1c1ccc(F)cc1 + COc1cc2nc(C)nc(NC(C)c3cc(N)cc(C(F)(F)F)c3)c2cc1OC1CCOC1 ) reads 91.6

viability, T/C in this record for CC1(C)CCC(CN2CCN(c3ccc(C(=O)NS(=O)(=O)c4ccc(NCC5CCOCC5)c([N+](=O)[O-])c4)c(Oc4cnc5[nH]ccc5c4)c3)CC2)=C(c2ccc(Cl)cc2)C1 + CNCc1ccccc1-c1csc(C(C)Nc2nc(C)nc3cc(OC)c(OC)cc23)c1 : 101

Data point: O=C(c1cc(Cc2n[nH]c(=O)c3ccccc23)ccc1F)N1CCN(C(=O)C2CC2)CC1 + C=CC(=O)N1CCN(c2nc(OCC3CCCN3C)nc3c2CCN(c2cccc4cccc(C)c24)C3)CC1CC#N ; viability, T/C = 81.2

* * *

The entries below come with measured IC50 values attached.
# Test system: PDC KRAS tumor spheroids with HUVEC/MSC, viability
# Test Summary: Anticancer human tumor 349418-098-R-PDC cell line growth inhibition [KRAS2];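 further: spheroids exposed to compounds for seven days before readout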
# Conditions: curve of first compound; second compound 10 µM
# Text: Multicellular complex tumor spheroid response to RAS pathway inhibitors in combination with a targeted agents in patient-derived cell lines with oncogenic KRAS variants from multiple cancer types A high-throughput screen of multi-cell type tumor spheroids was designed to identify active combinations of targeted small molecules and KRAS pathway inhibitors. […] Compounds. […] If the clinical Cmax for an agent had not been determined, the highest concentration tested was 10 microM. […]

Answered cases to consult:
CC(=O)OC12COC1CC(O)C1(C)C(=O)C(O)C3=C(C)C(OC(=O)C(O)C(NC(=O)OC(C)(C)C)c4ccccc4)CC(O)(C(OC(=O)c4ccccc4)C21)C3(C)C (stereo not given) + COc1cc2nc(C)nc(NC(C)c3cc(N)cc(C(F)(F)F)c3)c2cc1OC1CCOC1    < 0.01 µM
CC(=O)Nc1cccc(-n2c(=O)n(C3CC3)c(=O)c3c(Nc4ccc(I)cc4F)n(C)c(=O)c(C)c32)c1 + CC1OCC2(CCN(c3cnc(Sc4ccnc(N)c4Cl)c(N)n3)CC2)C1N    < 0.0001 µM
CC1(C)CCC(CN2CCN(c3ccc(C(=O)NS(=O)(=O)c4ccc(NCC5CCOCC5)c([N+](=O)[O-])c4)c(Oc4cnc5[nH]ccc5c4)c3)CC2)=C(c2ccc(Cl)cc2)C1 + CNCc1ccccc1-c1csc(C(C)Nc2nc(C)nc3cc(OC)c(OC)cc23)c1    < 0.0316 µM

CCN1CCN(Cc2ccc(Nc3ncc(F)c(-c4cc(F)c5nc(C)n(C(C)C)c5c4)n3)nc2)CC1 + CC1OCC2(CCN(c3cnc(Sc4ccnc(N)c4Cl)c(N)n3)CC2)C1N has a reported IC50 of 0.00616 µM

* * *

# Tested on: PDC KRAS tumor spheroids with HUVEC/MSC, viability
# Test Summary: Anticancer human tumor 349418-098-R-PDC cell line growth inhibition [KRAS2];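 further: spheroids exposed to compounds for seven days before readout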
# Conditions: second compound 0.316 µM; first compound 0.0316 µM; stronger effect = lower value
# Text: Multicellular complex tumor spheroid response to RAS pathway inhibitors in combination with a targeted agents in patient-derived cell lines with oncogenic KRAS variants from multiple cancer types A high-throughput screen of multi-cell type tumor spheroids was designed to identify active combinations of targeted small molecules and KRAS pathway inhibitors. […] Compounds. […] If the clinical Cmax for an agent had not been determined, the highest concentration tested was 10 microM. […]
Measured Quantity: viability, T/C

The recorded viability, T/C for entry CC(C)n1nc(-c2ccc3oc(N)nc3c2)c2c(N)ncnc21 + CNCc1ccccc1-c1csc(C(C)Nc2nc(C)nc3cc(OC)c(OC)cc23)c1 equals 7.42%

Measured viability, T/C, O=C(c1cc(Cc2n[nH]c(=O)c3ccccc23)ccc1F)N1CCN(C(=O)C2CC2)CC1 + CNCc1ccccc1-c1csc(C(C)Nc2nc(C)nc3cc(OC)c(OC)cc23)c1 : 107%

Data point: COc1cc(Nc2ncc3c(n2)-c2ccc(Cl)cc2C(c2c(F)cccc2OC)=NC3)ccc1C(=O)O + CC1OCC2(CCN(c3cnc(Sc4ccnc(N)c4Cl)c(N)n3)CC2)C1N ; viability, T/C = 57.4%

Summary for this compound, CC1(C)CCC(CN2CCN(c3ccc(C(=O)NS(=O)(=O)c4ccc(NCC5CCOCC5)c([N+](=O)[O-])c4)c(Oc4cnc5[nH]ccc5c4)c3)CC2)=C(c2ccc(Cl)cc2)C1 + CNCc1ccccc1-c1csc(C(C)Nc2nc(C)nc3cc(OC)c(OC)cc23)c1 : viability, T/C is 97%

viability, T/C measured on CCN1CCN(Cc2ccc(Nc3ncc(F)c(-c4cc(F)c5nc(C)n(C(C)C)c5c4)n3)nc2)CC1 + C=CC(=O)N1CCN(c2nc(OCC3CCCN3C)nc3c2CCN(c2cccc4cccc(C)c24)C3)CC1CC#N = 15.8%

// viability, T/C lookup, compound = COC(=O)c1ccc2c(C(=Nc3ccc(N(C)C(=O)CN4CCN(C)CC4)cc3)c3ccccc3)c(O)[nH]c2c1 + C=CC(=O)N1CCN(c2nc(OCC3CCCN3C)nc3c2CCN(c2cccc4cccc(C)c24)C3)CC1CC#N , result: 75.2%

viability, T/C for CC1OCC2(CCN(c3cnc(Sc4ccnc(N)c4Cl)c(N)n3)CC2)C1N (stereo not given) + COc1cc2nc(C)nc(NC(C)c3cc(N)cc(C(F)(F)F)c3)c2cc1OC1CCOC1 is 114%

Noted for CC1OCC2(CCN(c3cnc(Sc4ccnc(N)c4Cl)c(N)n3)CC2)C1N (stereo not given) + C=CC(=O)N1CCN(c2nc(=O)n(-c3c(C)ccnc3C(C)C)c3nc(-c4c(O)cccc4F)c(F)cc23)C(C)C1 : its viability, T/C reads 87.3%

Sure, the documented viability, T/C for CC(=O)OC12COC1CC(O)C1(C)C(=O)C(O)C3=C(C)C(OC(=O)C(O)C(NC(=O)OC(C)(C)C)c4ccccc4)CC(O)(C(OC(=O)c4ccccc4)C21)C3(C)C (stereo not given) + COc1cc2nc(C)nc(NC(C)c3cc(N)cc(C(F)(F)F)c3)c2cc1OC1CCOC1 is 27.1%

Form field viability, T/C, entry CC1(C)CCC(CN2CCN(c3ccc(C(=O)NS(=O)(=O)c4ccc(NCC5CCOCC5)c([N+](=O)[O-])c4)c(Oc4cnc5[nH]ccc5c4)c3)CC2)=C(c2ccc(Cl)cc2)C1 + CC1OCC2(CCN(c3cnc(Sc4ccnc(N)c4Cl)c(N)n3)CC2)C1N : 95.4%
